- Test system: MCF-7 breast carcinoma
- runDescription: Calcein-AM viability assay, MCF-7
- Assay type: cell-based
- recordedConditions: Homo sapiens, MCF7; MCF-7, 24 h
pIC50: −log10 of the molar value.

compound	pIC50
CC(C)C[C@@H](NC(=O)[C@H](CCCN/C(N)=N/[N+](=O)[O-])NC(=O)C(CCCCCCCCN1C(=O)c2ccccc2C1=O)C1CCCC1)B1O[C@H]2CC3CC(C3(C)C)C2(C)O1 (stereo partly shown)	< 6.00

----------
- System: PANC-1 pancreatic carcinoma
- runDescription: Calcein-AM viability assay, PANC-1
- Format: cell-based
- recordedConditions: Homo sapiens, PANC-1, 72 h

molecule	studySystem	IC50 [nM]
CC(C)C[C@@H](NC(=O)[C@H](CCCN/C(N)=N/[N+](=O)[O-])NC(=O)C(CCCCCCCCN1C(=O)c2ccccc2C1=O)C1CCCC1)B1O[C@H]2CC3CC(C3(C)C)C2(C)O1 (stereo partly shown)	PANC-1 pancreatic carcinoma	185
